Source: paper PMC10397247

Exercise: state measured interaction score for each of the binders provided.
target.entity: T1, O14-AA
T1 chain: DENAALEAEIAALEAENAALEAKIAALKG
experiment.notes: two-hybrid library CCmax;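 note: natural log of median RNA to DNA barcode read ratio; higher means stronger binding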
measurement.parameters: mean of both orientations
Numbers only.

Example entries begin here.
DKNAALKAEIAALEAEIAALEAKIAALKG [4H3590-AA] : -1.17
DKIAALKAEIAALEAKNAALKAKIAALKG [4H2622-AA] : 2.2
DKIAALKAKIAALKAEIAALEAKNAALKG [4H2888-AA] : 1.71

Shifting focus to the binder that follows.
Reported interaction score, binder DKNAALKAKNAALKAEIAALEAKIAALKG [4H4038-AA] : ____
1.56
